# target_under_test: Equilibrative nucleoside transporter 1 (Homo sapiens, UniProt Q99808); further: assay procedure not described here
# Sequence (Q99808 whole entry): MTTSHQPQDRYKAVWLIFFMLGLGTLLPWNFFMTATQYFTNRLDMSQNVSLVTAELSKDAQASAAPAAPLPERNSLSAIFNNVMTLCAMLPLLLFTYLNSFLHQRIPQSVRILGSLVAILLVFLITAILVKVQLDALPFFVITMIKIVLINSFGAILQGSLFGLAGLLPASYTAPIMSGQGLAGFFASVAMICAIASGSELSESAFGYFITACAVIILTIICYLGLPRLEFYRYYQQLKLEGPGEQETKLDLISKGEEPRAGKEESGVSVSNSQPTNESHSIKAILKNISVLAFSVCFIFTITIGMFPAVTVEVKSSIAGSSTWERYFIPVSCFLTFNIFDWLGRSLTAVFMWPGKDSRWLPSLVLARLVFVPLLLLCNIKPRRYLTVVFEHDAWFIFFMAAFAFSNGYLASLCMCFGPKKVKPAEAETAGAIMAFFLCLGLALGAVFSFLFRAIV
Readings of AC50 for the listed compounds

query: Under Equilibrative nucleoside transporter 1 (Homo sapiens, UniProt Q99808): AC50 value of CN1CCN(C(=O)OC2c3nccnc3C(=O)N2c2ccc(Cl)cn2)CC1 (centres undefined) [ZOPICLONE] ?
result: > 30 µM

query: I'm curious: which AC50 was measured for CCCOc1ccc(C(=O)OCCN(CC)CC)cc1N [PROPARACAINE] tested on Equilibrative nucleoside transporter 1 (Homo sapiens, UniProt Q99808)?; further: assay procedure not described here
result: > 30 µM

query: # get_value(readout= AC50, system= Equilibrative nucleoside transporter 1 (Homo sapiens, UniProt Q99808)) for O=C1CCC(N2C(=O)c3ccccc3C2=O)C(=O)N1 (centres undefined) [THALIDOMIDE]; further: assay procedure not described here
result: > 30 µM

query: Could you share what AC50 was measured for CCCCOc1cc(C(=O)NCCN(CC)CC)c2ccccc2n1 [DIBUCAINE] , tested on Equilibrative nucleoside transporter 1 (Homo sapiens, UniProt Q99808)?; further: assay procedure not described here
result: > 10 µM

query: Record lookup: for Equilibrative nucleoside transporter 1 (Homo sapiens, UniProt Q99808), what AC50 belongs to CC[C@H](C)C(=O)O[C@H]1C[C@H](O)C=C2C=C[C@H](C)[C@H](CC[C@@H](O)C[C@@H](O)CC(=O)O)[C@H]21 [PRAVASTATIN] ?
result: > 30 µM

query: Lab request: please report AC50 under test system Equilibrative nucleoside transporter 1 (Homo sapiens, UniProt Q99808) for CN1C(=O)CC(c2ccccc2)C1=O (centres undefined) [PHENSUXIMIDE]; further: assay procedure not described here
result: > 10 µM

query: Can you look up AC50 on Equilibrative nucleoside transporter 1 (Homo sapiens, UniProt Q99808) for N[C@@H](CSCC(=O)O)C(=O)O [CARBOCYSTEINE] ?
result: > 30 µM

query: Query the reported AC50 for Equilibrative nucleoside transporter 1 (Homo sapiens, UniProt Q99808); item: CCCC(=O)N1CCCN(c2nc(N)c3cc(OC)c(OC)cc3n2)CC1 [BUNAZOSIN]
result: > 30 µM

query: Please provide the recorded AC50 for CC(C)NCC(O)COc1ccc(COCCOC(C)C)cc1 (centres undefined) [BISOPROLOL] , tested on Equilibrative nucleoside transporter 1 (Homo sapiens, UniProt Q99808). Further: assay procedure not described here.
result: > 30 µM

// provenance: ChEMBL document CHEMBL5291721
